Each item that follows carries a reported MIC.
# System: Staphylococcus aureus
# method description: microbe, parasite or virus in culture
# stated conditions: MRSA, read-out: Staphylococcus aureus MIC, MRSA strain NR-41877
Please give a number only; it is taken to be in µg/mL.

The following molecules have reported results that may help.
Cc1ccccc1Sc1c[nH]c2ccc(Br)cc12 [Compound 174AY, 5-bromo-3-(o-tolylthio)-1H-indole] : 2
Oc1ccccc1Sc1c[nH]c2ccc(Br)cc12 [Compound 174AI, 2-((5-bromo-1H-indol-3-yl)thio)phenol] : 8

Value of MIC reported for the molecule OCc1ccccc1Sc1c[nH]c2ccc(Br)cc12 [Compound 174AT] is 16

Value of MIC reported for the molecule FC(F)(F)c1ccccc1Sc1c[nH]c2ccc(Br)cc12 [Compound 174AV] is 2

Value of MIC reported for the molecule Brc1ccc(Sc2c[nH]c3ccc(Br)cc23)cc1 [Compound 172D] is 3.13

All values here come from patent US20250382268A1.
